experimental_protocol: qHTS assay to identify small molecule agonists of H2AX - cell viability counter screen (AID 1224847); further: nearly all actives have a fitted effect of over 30% in size
conditions_used: CHO-K1 viability, CellTiter-Glo luminescence, 3 h; series mostly up to 70.9 µM
Results filed as inconclusive are left out. Activity calls are given as the source filed them. The call rests on the fitted dose curve.
Outcomes you can answer with include only these: active, inactive

Record excerpt, results attached:
- O=C(O)c1cc(O)c2c(c1)C(=O)c1cccc(O)c1C2=O: inactive
- Cc1cc(C2CCCCC2)n(O)c(=O)c1: inactive
- CCCCCCCCn1sc(Cl)c(Cl)c1=O: active
- C/C=C(\C)C(=O)OCc1ccccc1: inactive

For the next question, use this molecule.
Fill in: this test's call for Nc1ccccc1O is ___
inactive
